# study_target: T1, ST2 on the effector cells (KU812, KU812/NF-κB-1#, HUVEC, HMC-1) (human, UniProt Q01638 19-556)
# T1 sequence (looked up): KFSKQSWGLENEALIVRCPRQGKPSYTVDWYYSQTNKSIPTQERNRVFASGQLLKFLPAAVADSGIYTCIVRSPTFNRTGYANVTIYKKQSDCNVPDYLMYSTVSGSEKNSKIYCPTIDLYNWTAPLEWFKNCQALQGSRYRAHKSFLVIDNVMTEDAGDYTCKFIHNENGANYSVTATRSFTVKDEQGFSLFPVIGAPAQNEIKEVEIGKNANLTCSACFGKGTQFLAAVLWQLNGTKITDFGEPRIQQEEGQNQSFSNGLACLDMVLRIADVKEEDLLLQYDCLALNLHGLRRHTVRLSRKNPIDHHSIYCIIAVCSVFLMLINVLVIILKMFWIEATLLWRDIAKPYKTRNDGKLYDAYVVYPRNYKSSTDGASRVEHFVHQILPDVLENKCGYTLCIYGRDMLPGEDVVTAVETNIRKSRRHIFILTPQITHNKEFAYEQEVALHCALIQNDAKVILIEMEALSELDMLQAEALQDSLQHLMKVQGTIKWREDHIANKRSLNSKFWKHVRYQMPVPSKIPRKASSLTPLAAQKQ
# experimental_details: cell-based or functional assay
Recorded Relative activity, HUVEC-IL6 production by IL33 by entry

Dear colleague, I am looking for the recorded Relative activity, HUVEC-IL6 production by IL33 of the following binder: Control antibody CNTO7160 (antibody, human IgG4 S228P, kappa, V domains shown, Known anti-ST2 control antibody) VH: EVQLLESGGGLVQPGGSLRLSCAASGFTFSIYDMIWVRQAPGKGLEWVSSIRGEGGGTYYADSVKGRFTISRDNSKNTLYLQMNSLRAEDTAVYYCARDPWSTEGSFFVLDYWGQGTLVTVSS VL: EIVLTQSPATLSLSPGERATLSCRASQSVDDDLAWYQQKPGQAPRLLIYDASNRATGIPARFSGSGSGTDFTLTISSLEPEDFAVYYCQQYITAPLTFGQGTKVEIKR
100%

And 5887-41-H1L0 (antibody, human IgG4 S228P, kappa, V domains shown, Humanized antibody) VH: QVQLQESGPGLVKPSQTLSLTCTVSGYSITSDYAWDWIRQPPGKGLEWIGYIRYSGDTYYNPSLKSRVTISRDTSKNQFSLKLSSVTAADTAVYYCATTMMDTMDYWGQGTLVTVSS VL: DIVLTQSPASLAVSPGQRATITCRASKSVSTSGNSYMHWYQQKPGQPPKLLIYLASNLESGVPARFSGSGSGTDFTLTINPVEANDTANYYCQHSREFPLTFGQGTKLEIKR ?
208%
